# Method notes: Pharmacokinetic studies in rat (i.v.)
# Format: in vivo
# Details: male, Sprague-Dawley, rat, plasma, iv, rat plasma, i.v., first individual rat (R01/R04); estimated from 2 points only; dose 1.37 mg/kg (I-71, I-128), 1.33 mg/kg ((S) I-67); read-out: Apparent t1/2 (converted)
Task for the reader: assign each of the following compounds its reported half-life.
Give just the numeric value; min need not be written.

Documented half-life of COc1ccc2[nH]cc(CCN3CC[C@H](OC(F)F)C3)c2c1 [(S) I-67] : 35.9

Briefly, half-life measured for `CN(C)CCc1c[nH]c2ccc(OCCOC(F)F)cc12` : 15.3

Entry `COc1ccc2[nH]cc(CCN(C)CCOC(F)F)c2c1` — recorded half-life = 29.6

###

# Method notes: Mouse liver microsomes stability
# Assay type: in vitro ADME
# Details: mouse liver microsomes
Mark each entry true if its Predicted hepatic CL sits below 70 mL/min/kg, and false for all others.

Could you please tell me whether Predicted hepatic CL recorded for `CN(CCOC(F)F)CCc1c[nH]c2ccccc12` is less than 70 mL/min/kg?
false

Does COc1ccc2[nH]cc(CCN3CC[C@@H](OC(F)F)C3)c2c1 [(R) I-67] have Predicted hepatic CL strictly under 70 mL/min/kg?
true

# TODO verify Predicted hepatic CL < 70 mL/min/kg strictly for this compound: `COc1ccc2[nH]cc(CCN(C)C)c2c1`
true

# check: Predicted hepatic CL < 70 mL/min/kg for COc1ccc2[nH]cc(CCN3CC[C@@H](OC)C3)c2c1 [(R) I-66]
true

Report whether reported Predicted hepatic CL is lower than 70 mL/min/kg (strictly) for `COc1ccc2[nH]cc(CCN(C)CCOC(F)F)c2c1`
false

###

Task for the reader: assign each of the following compounds its reported Ki.
# Measured target: UniProt:P41595
# Sequence (P41595 whole entry): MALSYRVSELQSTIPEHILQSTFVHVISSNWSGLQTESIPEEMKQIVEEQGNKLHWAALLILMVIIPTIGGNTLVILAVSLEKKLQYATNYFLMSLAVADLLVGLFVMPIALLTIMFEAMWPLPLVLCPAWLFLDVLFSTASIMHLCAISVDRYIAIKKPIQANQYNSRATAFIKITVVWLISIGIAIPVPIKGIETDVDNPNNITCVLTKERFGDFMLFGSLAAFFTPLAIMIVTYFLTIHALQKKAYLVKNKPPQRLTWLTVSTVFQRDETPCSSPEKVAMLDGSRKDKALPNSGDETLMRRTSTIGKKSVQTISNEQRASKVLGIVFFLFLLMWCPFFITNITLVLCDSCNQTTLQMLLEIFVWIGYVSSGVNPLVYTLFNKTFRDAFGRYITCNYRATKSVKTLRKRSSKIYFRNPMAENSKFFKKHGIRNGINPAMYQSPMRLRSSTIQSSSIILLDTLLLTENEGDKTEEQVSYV
# Method notes: Human 5-HT2B radioligand binding assay ([3H]-LSD)
# Design: host or cells: cell membrane, dosed as 1 unit/well

So for CCN(C)CCc1c[nH]c2ccc(SC)cc12 [Compound I-13] , the logged Ki turned out to be 33.1 nM

// recorded Ki for [2H]C([2H])([2H])N(CCc1c[nH]c2ccc(SC)cc12)C([2H])([2H])[2H] [Compound I-1] : 38.6 nM

Form field Ki, entry CSc1ccc2[nH]cc(CCN(C(C)C)C(C)C)c2c1 [Compound I-17] : 114 nM

Reported Ki for CCN(CC)CCc1c[nH]c2ccc(SC)cc12 [Compound I-12] was 233 nM

Record CSc1ccc2[nH]cc(CCN(C)C(C)C)c2c1 [Compound I-19] . Reported Ki: 143 nM

###

For each record, write down the corresponding Remaining Percentage (%).
# Method notes: Mouse liver microsomes stability
# Format: in vitro ADME
# Details: mouse liver microsomes, With Cofactors, 60 min

Remaining Percentage (%) measured on COc1ccc2[nH]cc(CCN3CC[C@@H](OC)C3)c2c1 [(R) I-66] = 65.58%

For `O=C(O)Cc1ccccc1Nc1c(Cl)cccc1Cl` the compound record lists Remaining Percentage (%) as 33.71%

The recorded Remaining Percentage (%) for `CN(CCOC(F)F)CCc1c[nH]c2ccccc12` is 0.87%

The compound listed as COc1ccc2[nH]cc(CCN3CC[C@H](OC(F)F)C3)c2c1 [(S) I-67] has a reported Remaining Percentage (%) of 12.49%

# Remaining Percentage (%) (compound: `CN(C)CCc1c[nH]c2ccc(OCCOC(F)F)cc12` ) is 13.52%

Looking up `COc1ccc2[nH]cc(CCN(C)CCOC(F)F)c2c1` , I see its Remaining Percentage (%) listed as 0.66%

For reference, reported Remaining Percentage (%) for COc1ccc2[nH]cc(CCN3CC[C@@H](OC(F)F)C3)c2c1 [(R) I-67] stands at 17.88%

Measured Remaining Percentage (%) of `COc1ccc2[nH]cc(CCN(C)C)c2c1` : 39.30%

###

# Measured target: human 5-HT2A receptor (Homo sapiens)
# Sequence (P28223 whole entry): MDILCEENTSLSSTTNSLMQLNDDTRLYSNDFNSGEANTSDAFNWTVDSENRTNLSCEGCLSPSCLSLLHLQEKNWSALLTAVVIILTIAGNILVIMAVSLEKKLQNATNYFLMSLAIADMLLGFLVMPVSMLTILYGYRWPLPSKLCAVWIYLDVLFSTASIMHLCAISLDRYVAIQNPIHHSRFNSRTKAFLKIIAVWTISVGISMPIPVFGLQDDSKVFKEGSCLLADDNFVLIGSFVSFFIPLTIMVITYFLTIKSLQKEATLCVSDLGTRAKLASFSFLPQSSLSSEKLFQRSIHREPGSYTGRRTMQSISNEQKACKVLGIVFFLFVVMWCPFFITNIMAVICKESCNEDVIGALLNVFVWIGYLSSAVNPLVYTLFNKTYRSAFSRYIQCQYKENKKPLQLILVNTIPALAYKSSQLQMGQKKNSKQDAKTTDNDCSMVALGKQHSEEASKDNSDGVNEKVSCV
# Method notes: h-5HT2A β-arrestin reporter assay in U2OS cells
# Type: cell-based
# Set-up: expressed in transfected cells
# Details: β-arrestin reporter, U2OS cells; read-out: EC50
Endpoint name: EC50 (nM)
# value in nM; strip the unit string

Per the records, this compound ( CN(C)CCc1c[nH]c2ccccc12 [DMT] ) has EC50 equal to 114

###

# Method notes: Pharmacokinetic studies in rat (i.v.)
# Format: in vivo
# Details: male, Sprague-Dawley, rat, plasma, iv, 1.14 mg/kg, I-13 1.14 mg/kg i.v., rat plasma, Mean ± SD; read-out: AUC0-tlast
Endpoint name: AUC(0-t) (ng·h/mL)
Answer in ng·h/mL, number only, no unit symbol.

Per the record, `CCN(C)CCc1c[nH]c2ccc(SC)cc12` has AUC(0-t) of 105

###

# Method notes: Pharmacokinetic studies in rat (i.v.)
# Type: in vivo
# Details: male, Sprague-Dawley, rat, plasma, iv, rat plasma, i.v., third individual rat (R03/R06); estimated from 2 points only; dose 1.37 mg/kg (I-71, I-128), 1.33 mg/kg ((S) I-67); read-out: Apparent t1/2 (converted)
Endpoint name: half-life (min)
State just the number; it will be interpreted in min.

The recorded half-life for entry `COc1ccc2[nH]cc(CCN(C)CCOC(F)F)c2c1` equals 32.9

Lab note: COc1ccc2[nH]cc(CCN3CC[C@H](OC(F)F)C3)c2c1 [(S) I-67] gave half-life of 38.8

Reported half-life ( `CN(C)CCc1c[nH]c2ccc(OCCOC(F)F)cc12` ) = 13.3

###

# Method notes: Pharmacokinetic studies in rat (i.v.)
# Format: in vivo
# Details: male, Sprague-Dawley, rat, plasma, iv, 1.14 mg/kg, I-13 1.14 mg/kg i.v., rat plasma, 4 h, Mean ± SD; read-out: Plasma concentration
Endpoint name: concentration at 4 h (ng/mL)
API: value field is a number in ng/mL; no unit string.

Noted for `CCN(C)CCc1c[nH]c2ccc(SC)cc12` : its concentration at 4 h reads 1.69

###

# Method notes: Pharmacokinetic studies in rat (i.v.)
# Assay type: in vivo
# Details: male, Sprague-Dawley, rat, plasma, iv, 1.1 mg/kg, I-1 1.10 mg/kg i.v., rat plasma, 0.25 h, Mean ± SD; read-out: Plasma concentration
Endpoint name: concentration at 0.25 h (µg/mL)
Numeric answer only, unit µg/mL assumed.

Looking up [2H]C([2H])([2H])N(CCc1c[nH]c2ccc(SC)cc12)C([2H])([2H])[2H] [Compound I-1] , I found its concentration at 0.25 h recorded as 0.0164

###

# Method notes: Mouse liver microsomes stability
# Assay type: in vitro ADME
# Details: male, mouse, liver microsomes, Mouse liver microsomes, 2 μM compound, 0.5 mg/mL microsomes, 1 mM NADPH; read-out: CLint (μL/min/mg protein)
What microsomal CLint at 2 μM was measured for each of the following?
# output: bare number, implied unit µL/min/mg

Reported microsomal CLint at 2 μM for `[2H]C([2H])([2H])N(CCc1c[nH]c2ccc(SC)cc12)C([2H])([2H])[2H]` was 210

// `CCN(CC)CCc1c[nH]c2ccc(SC)cc12` : microsomal CLint at 2 μM value = 226

The compound identified as `CSc1ccc2[nH]cc(CCN(C)C(C)C)c2c1` registered its microsomal CLint at 2 μM at 138

The reported value for `O=C(O)Cc1ccccc1Nc1c(Cl)cccc1Cl` in terms of microsomal CLint at 2 μM is 32

###

# Method notes: Pharmacokinetic studies in rat (i.v.)
# Format: in vivo
# Details: male, Sprague-Dawley, rat, plasma, iv, 1.33 mg/kg, I-17 1.33 mg/kg i.v., rat plasma, individual rats R07-R09; read-out: AUC0-tlast
Endpoint name: AUC(0-t) (ng·h/mL)
Please reply with the bare figure in ng·h/mL and do not write the unit itself.

What the record says about `CSc1ccc2[nH]cc(CCN(C(C)C)C(C)C)c2c1` : AUC(0-t) is 291

###

# Method notes: Human liver microsomes stability
# Type: in vitro ADME
# Details: Human liver microsomes, 2 μM compound, 0.5 mg/mL microsomes, 1 mM NADPH, 37° C
# Protocol: The objective of this study was to estimate in vitro metabolic stability of exemplary compounds of Formula (I) or a pharmaceutically acceptable salt, solvate, and/or prodrug thereof in pooled human, male rat, and male mouse liver microsomes. The concentrations of compounds in reaction systems were evaluated by LC-MS/MS for estimating the stability in pooled human, male rat, and male mouse liver microsomes. The in vitro intrinsic clearances of test compounds were determined as well. […]
Endpoint name: half-life at 2 μM
Mention the unit after the number when you answer.

Measured half-life at 2 μM, `CSc1ccc2[nH]cc(CCN(C)C(C)C)c2c1` : 18.7 min

Form: compound = `CSc1ccc2[nH]cc(CCN(C(C)C)C(C)C)c2c1` ; half-life at 2 μM = 6.99 min

Reported half-life at 2 μM ( `CCN(CC)CCc1c[nH]c2ccc(SC)cc12` ) = 25.8 min

// field: half-life at 2 μM; key: `CCN(C)CCc1c[nH]c2ccc(SC)cc12` ; value = 11.7 min

Form field half-life at 2 μM, entry `[2H]C([2H])([2H])N(CCc1c[nH]c2ccc(SC)cc12)C([2H])([2H])[2H]` : 6.04 min
